# Tested on: L1210 leukemia ip in BDF1 mice, survival T/C
# Assay comment: NCI In Vivo Anticancer Drug Screen. Data for tumor model L1210 Leukemia (intraperitoneal) in B6D2F1 (BDF1) mice
# Study conditions: endpoint: mean survival time; dose: 400.0 mg/kg/injection; schedule: Q01DX009 (ip); vehicle: Klucel (hydroxypropylcellulose) (HPC); higher = longer survival
Toxic doses and inconclusive results are not listed.
Quantity name: T/C

Here's what some known entries look like.
O=C(c1ccccc1)C1Cc2ccccc2C1=O (configuration not stated) | 97 % of control
CC(=O)Nc1ccc(/C(C#N)=C/c2ccc(N(C)CCC#N)cc2)cc1 | 96 % of control
CCCCCC1CCC(O)CC1 (configuration not stated) | 105 % of control
CC(=O)Nc1ccccc1C(=NC1CCCC1)C(=O)NC1CCCC1 | 95 % of control
O=[N+]([O-])c1ccccc1S(=O)(=O)/C=C/c1ccccc1 | 94 % of control
C/C(=N\Nc1nc2ccccc2o1)c1ccncc1 | 108 % of control
O=[N+]([O-])c1ccc(N/N=C2/C(=C/c3cccc4ccccc34)CCc3ccccc32)c([N+](=O)[O-])c1 | 91 % of control
Cc1cccc(NC(=O)Oc2ccc(-c3ccccc3)cc2)c1 | 97 % of control

q: Let me know recorded T/C for `CCOC(=O)C(CCN(C)Cc1ccccc1)C(=O)OCC` , thanks.
a: 106 % of control

q: Let me know recorded T/C for `Cc1cccc(C)c1NC(=O)Nc1ccc(Cl)cc1` , thanks.
a: 91 % of control

q: Let me know recorded T/C for `CCCCCCCCCCCCCCCCCC(N)=O` , thanks.
a: 117 % of control

q: Let me know recorded T/C for `Cc1cccc2cc3ccc4ccccc4c3cc12` , thanks.
a: 101 % of control

Where these numbers come from: PubChem BioAssay AID248
